# assay_target: Adenosine receptor A2a (Homo sapiens, UniProt P29274)
# Sequence (P29274 whole entry, the tested form may be a part): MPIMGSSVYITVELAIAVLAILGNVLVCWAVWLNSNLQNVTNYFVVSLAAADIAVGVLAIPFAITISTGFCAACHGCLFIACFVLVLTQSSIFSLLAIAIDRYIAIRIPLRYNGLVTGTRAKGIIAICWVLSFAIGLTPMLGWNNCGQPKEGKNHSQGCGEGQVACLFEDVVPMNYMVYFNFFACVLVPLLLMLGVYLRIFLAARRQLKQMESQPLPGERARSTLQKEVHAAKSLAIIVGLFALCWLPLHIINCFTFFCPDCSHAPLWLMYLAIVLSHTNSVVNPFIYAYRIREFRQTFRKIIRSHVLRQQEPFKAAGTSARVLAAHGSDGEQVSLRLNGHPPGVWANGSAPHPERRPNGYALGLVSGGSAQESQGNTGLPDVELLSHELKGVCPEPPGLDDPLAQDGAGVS
# assay_comment: Displacement of MRS5346 from C-terminal 10xHis and 1D4-tagged C-terminal-truncated human A2A adenosine receptor (1 to 316 residues) expressed in Pichia pastoris expression system after 1 hr by fluorescence polarization assay
measured_attribute: Ki
# output: numeric value plus its unit

1. Nc1nc2nn(Cc3ccc(C4(C(F)(F)F)N=N4)cc3)cc2c2nc(-c3ccco3)nn12 :: 0.0397 µM

We now examine a further compound.
IN: Please report the recorded Ki for Nc1nc2c(cnn2Cc2ccc(C3(C(F)(F)F)N=N3)cc2)c2nc(-c3ccco3)nn12 .
OUT: 1.52 µM
